Quick list: inhibition per entry.
Measured Target: Rac GTPase-activating protein 1 (Homo sapiens) (UniProt Q9H0H5)
Sequence (Q9H0H5 whole entry, looked up): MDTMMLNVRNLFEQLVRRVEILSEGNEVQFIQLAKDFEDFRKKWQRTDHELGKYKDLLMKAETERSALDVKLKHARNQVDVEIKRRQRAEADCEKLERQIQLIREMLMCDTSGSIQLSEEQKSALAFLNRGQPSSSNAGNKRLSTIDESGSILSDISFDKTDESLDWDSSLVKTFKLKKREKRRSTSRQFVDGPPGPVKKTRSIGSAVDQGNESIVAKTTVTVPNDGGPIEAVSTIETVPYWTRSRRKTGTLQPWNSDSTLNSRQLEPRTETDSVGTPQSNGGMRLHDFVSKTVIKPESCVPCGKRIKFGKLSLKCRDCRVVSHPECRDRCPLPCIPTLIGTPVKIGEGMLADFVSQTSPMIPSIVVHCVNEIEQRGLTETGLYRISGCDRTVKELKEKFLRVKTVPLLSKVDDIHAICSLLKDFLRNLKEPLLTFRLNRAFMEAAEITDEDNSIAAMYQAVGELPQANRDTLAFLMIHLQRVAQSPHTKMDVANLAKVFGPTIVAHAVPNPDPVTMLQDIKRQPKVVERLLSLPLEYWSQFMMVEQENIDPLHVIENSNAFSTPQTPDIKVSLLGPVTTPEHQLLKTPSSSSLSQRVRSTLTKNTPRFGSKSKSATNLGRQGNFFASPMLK
Assay Summary: blockers of MgcRacGAP-driven Rac1 GTP hydrolysis – biochemical, ADP Hunter fluorescence, primary and confirmatory, confirmation (AID 624330);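 further: fluorescence reports GDP produced by GAP-driven GTP hydrolysis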
Condition Summary: MgcRacGAP-stimulated Rac1 GTP hydrolysis, at 30 µM, hits give high values, GST-tagged Rac1 F28L mutant substrate
Screen size: about 340,000 compounds; about 2,100 (0.62%) were called active. These entries were drawn from the full list. Measured potencies and affinities stand elsewhere.
Experimental Readout: inhibition (%)

[[record]]
molecule = "COc1ccccc1N1CCN(S(=O)(=O)c2ccc(NC(C)=O)cc2)CC1"
experimental_readout = "inhibition"
assay_result = 7.69

[[record]]
molecule = "CCOC(=O)c1c(C)n(C)c2cc(Br)c(C)cc12"
experimental_readout = "inhibition"
assay_result = -1.61

[[record]]
molecule = "COc1ccccc1N1CCN(C2CCCN(C(=O)c3ccsc3)C2)CC1 (stereo unspecified)"
experimental_readout = "inhibition"
assay_result = 9.49

[[record]]
molecule = "CC12CCC(C(=O)Nc3cc(Cl)ccc3Cl)(C(Br)C1=O)C2(C)C (stereo unspecified)"
experimental_readout = "inhibition"
assay_result = 8

[[record]]
molecule = "CCCOc1ccc(/C=N/NC(=O)c2c(-c3ccccc3)noc2C)cc1OC"
experimental_readout = "inhibition"
assay_result = 7.42

[[record]]
molecule = "Cc1ccc(C)c2c1[nH]c1ccccc12"
experimental_readout = "inhibition"
assay_result = 10.6

[[record]]
molecule = "CC(=O)c1ccc(N2CCN(CC(O)COC(c3ccccc3)c3ccccc3C)CC2)cc1 (stereo unspecified)"
experimental_readout = "inhibition"
assay_result = 12.8

[[record]]
molecule = "COc1cc2[nH]c3ccccc3c2cc1C"
experimental_readout = "inhibition"
assay_result = -5.8

[[record]]
molecule = "CCN1CCN(CC(O)COC(c2ccccc2)c2ccccc2)CC1 (stereo unspecified)"
experimental_readout = "inhibition"
assay_result = 0.21

[[record]]
molecule = "CCOc1ccc(/C=N/NC(=O)c2c(-c3ccccc3)noc2C)cc1"
experimental_readout = "inhibition"
assay_result = 10.9

[[record]]
molecule = "c1ccc(C(CN2CCOCC2)c2ccccc2)cc1"
experimental_readout = "inhibition"
assay_result = 14.5


###

Measured Target: Rac GTPase-activating protein 1 (Homo sapiens)
Assay Summary: blockers of MgcRacGAP-driven Rac1 GTP hydrolysis – biochemical, ADP Hunter fluorescence, primary and confirmatory, confirmation (AID 624330);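 further: fluorescence reports GDP produced by GAP-driven GTP hydrolysis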
Condition Summary: MgcRacGAP-stimulated Rac1 GTP hydrolysis, at 30 µM, hits give high values, GST-tagged Rac1 F28L mutant substrate
Screen size: about 340,000 compounds; about 2,100 (0.62%) were called active. These entries were drawn from the full list. Potency and affinity values are given separately.
Quick list: inhibition per entry.
Experimental Readout: inhibition (%)

[[record]]
molecule = "O=C1NC(Cc2ccccc2)c2nc3ccc(Cl)cc3c(=O)n2-c2ncccc21 (stereo unspecified)"
experimental_readout = "inhibition"
assay_result = 7.29

[[record]]
molecule = "CC(C)CN1CC(Br)C(=O)NC1=O (stereo unspecified)"
experimental_readout = "inhibition"
assay_result = 4.9

[[record]]
molecule = "Cc1ccc(NS(=O)(=O)c2ccc3c(c2)NC(=O)C(C)C(=O)N3)c(Br)c1 (stereo unspecified)"
experimental_readout = "inhibition"
assay_result = -1.09

[[record]]
molecule = "Cc1ccccc1CN1CCN(Cc2ccccc2C(F)(F)F)CC1"
experimental_readout = "inhibition"
assay_result = 25.3

[[record]]
molecule = "Cc1ccc(S(=O)(=O)c2ccc(C)cc2)cc1"
experimental_readout = "inhibition"
assay_result = 5.53

[[record]]
molecule = "Cc1c(C(=O)COC(C)(C)C)[nH]c2ccccc12"
experimental_readout = "inhibition"
assay_result = 8.87


###

Measured Target: Rac GTPase-activating protein 1 (Homo sapiens)
Assay Summary: blockers of MgcRacGAP-driven Rac1 GTP hydrolysis – biochemical, ADP Hunter fluorescence, primary and confirmatory, confirmation (AID 624330);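 further: fluorescence reports GDP produced by GAP-driven GTP hydrolysis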
Condition Summary: MgcRacGAP-stimulated Rac1 GTP hydrolysis, at 30 µM, hits give high values, GST-tagged Rac1 F28L mutant substrate
Among all 340,000 compounds or so, about 2,100 (0.62%) were called active. Only a sample is shown. Measured potencies and affinities stand elsewhere.
Quick list: inhibition per entry.
Experimental Readout: inhibition (%)

[[record]]
molecule = "CCn1cnc2c(Nc3cccc(Cl)c3)nc(C#N)nc21"
experimental_readout = "inhibition"
unit_name = "%"
assay_result = 12.9

[[record]]
molecule = "Cc1cccc(N=C2CCCC2C(=O)Nc2cccc(C)c2C)c1C (centres undefined)"
experimental_readout = "inhibition"
unit_name = "%"
assay_result = 5.77

[[record]]
molecule = "CCOc1ccccc1NC(=O)Cn1cnc2c(cnn2-c2ccc(C)c(C)c2)c1=O"
experimental_readout = "inhibition"
unit_name = "%"
assay_result = 9.09

[[record]]
molecule = "Cc1ccc(-c2nc3sc4c(c3c(=O)n2N)CC(C)(C)OC4)cc1"
experimental_readout = "inhibition"
unit_name = "%"
assay_result = 3.06

[[record]]
molecule = "NS(=O)(=O)c1ccc(CCNC(=O)CN2CCN(Cc3cccc4ccccc34)CC2)cc1"
experimental_readout = "inhibition"
unit_name = "%"
assay_result = 3.28

[[record]]
molecule = "Cn1c(=O)c2ccccc2n2c(CCl)nnc12"
experimental_readout = "inhibition"
unit_name = "%"
assay_result = -0.09

[[record]]
molecule = "COc1ccc(C(=O)Nc2cccc3nc(C)ccc23)cc1OC"
experimental_readout = "inhibition"
unit_name = "%"
assay_result = 12.2

[[record]]
molecule = "CCCN(CC(=O)Nc1cc(Cl)ccc1Cl)C(=O)c1ccc(N2CCCC2=O)cc1"
experimental_readout = "inhibition"
unit_name = "%"
assay_result = 3.44

[[record]]
molecule = "Cc1ccc(Cn2c(CCNc3nc(-c4ccc(Cl)c([N+](=O)[O-])c4)cs3)nc3cc(Cl)c(Cl)cc32)cc1"
experimental_readout = "inhibition"
unit_name = "%"
assay_result = 7.46

[[record]]
molecule = "CCN1C[C@@H]2[C@@H]3C(=O)N(Cc4ccccc4)C(=O)[C@@H]3[C@](C)(C1=O)N2C(=O)c1ccc(Br)cc1"
experimental_readout = "inhibition"
unit_name = "%"
assay_result = 7.24

[[record]]
molecule = "O=C(COc1ccccc1F)NC12CC3CC(CC(C3)C1)C2"
experimental_readout = "inhibition"
unit_name = "%"
assay_result = 9.07

[[record]]
molecule = "O=C(Nc1cccc(S(=O)(=O)N2CCOCC2)c1)c1c2c(nc3ccccc13)CCC2"
experimental_readout = "inhibition"
unit_name = "%"
assay_result = 11.9

[[record]]
molecule = "O=C(/C=C/c1ccc(Cl)cc1)N1CCN(Cc2ccccc2)CC1"
experimental_readout = "inhibition"
unit_name = "%"
assay_result = 10.8

[[record]]
molecule = "CSc1ccccc1NC(=O)NCCCl"
experimental_readout = "inhibition"
unit_name = "%"
assay_result = -4.18

[[record]]
molecule = "Cc1cccc(C)c1-n1cccc1/C=C1\\SC(=S)N(c2cccc(C(=O)O)c2)C1=O"
experimental_readout = "inhibition"
unit_name = "%"
assay_result = -1.38

[[record]]
molecule = "COc1ccc2o/c(=N\\O)c(C(=O)Nc3ccc(C)cc3)cc2c1"
experimental_readout = "inhibition"
unit_name = "%"
assay_result = 6.76

[[record]]
molecule = "COc1cccc(S(=O)(=O)NCc2ccc(C(=O)NCc3ccco3)cc2)c1"
experimental_readout = "inhibition"
unit_name = "%"
assay_result = 13.6

[[record]]
molecule = "COc1ccc(Cl)cc1NS(=O)(=O)N1CCOCC1"
experimental_readout = "inhibition"
unit_name = "%"
assay_result = 6.51

[[record]]
molecule = "Cc1sc(NC(=O)c2ccc(F)cc2)c(CN2CCCCCC2)c1C"
experimental_readout = "inhibition"
unit_name = "%"
assay_result = 13.7

[[record]]
molecule = "CN(C)c1ccc(/C=C/c2ccc3ccccc3n2)cc1"
experimental_readout = "inhibition"
unit_name = "%"
assay_result = 10.9

[[record]]
molecule = "CC(=O)Nc1ccc(NC(=O)c2nccnc2C(=O)O)cn1"
experimental_readout = "inhibition"
unit_name = "%"
assay_result = 2.3

[[record]]
molecule = "NC(=O)CC(NC(=O)c1ccc(Br)cc1)c1ccc(N2CCN(c3ccccn3)CC2)c([N+](=O)[O-])c1 (centres undefined)"
experimental_readout = "inhibition"
unit_name = "%"
assay_result = 4.07

[[record]]
molecule = "CC1CC(C)CN(CCCCOc2ccc([N+](=O)[O-])cc2)C1 (centres undefined)"
experimental_readout = "inhibition"
unit_name = "%"
assay_result = 19.1

[[record]]
molecule = "Nc1ccc2c(c1)[nH]c(=O)c1ccccc12"
experimental_readout = "inhibition"
unit_name = "%"
assay_result = 21.4

[[record]]
molecule = "N#Cc1ccc(N/N=C/c2ccccc2)c([N+](=O)[O-])c1"
experimental_readout = "inhibition"
unit_name = "%"
assay_result = 2.61

[[record]]
molecule = "NC(N)=NS(=O)(=O)c1ccc(N/C=C/C(=O)c2ccc(Cl)c(Cl)c2)cc1"
experimental_readout = "inhibition"
unit_name = "%"
assay_result = 6.29

[[record]]
molecule = "CN(C)C(=O)CCc1ccc2c3c([nH]c2c1)[C@]1(C)[C@@H](C(=O)N2CCCCC2)C[C@H](CC(=O)NCc2cccc(C(F)(F)F)c2)C(=O)N1CC3"
experimental_readout = "inhibition"
unit_name = "%"
assay_result = 4.55

[[record]]
molecule = "CCCCCn1c(=O)c2ccccc2n2c(CCl)nnc12"
experimental_readout = "inhibition"
unit_name = "%"
assay_result = 1.94

[[record]]
molecule = "CCOCCCNC(=O)CCc1nnc2n(CCC(C)C)c(=O)c3ccccc3n12"
experimental_readout = "inhibition"
unit_name = "%"
assay_result = 7.91

[[record]]
molecule = "COCC(=O)N(Cc1cc2cccc(C)c2[nH]c1=O)c1ccccc1"
experimental_readout = "inhibition"
unit_name = "%"
assay_result = 2.29

[[record]]
molecule = "O=C(Cc1cccc(C(F)(F)F)c1)N1CCCC1"
experimental_readout = "inhibition"
unit_name = "%"
assay_result = 1.4

[[record]]
molecule = "O=c1c2ccccc2[nH]c(=S)n1CCCN1CCOCC1"
experimental_readout = "inhibition"
unit_name = "%"
assay_result = 4.66

[[record]]
molecule = "O=c1[nH]c2ccccc2nc1/C=C/c1ccc(F)cc1"
experimental_readout = "inhibition"
unit_name = "%"
assay_result = 2.77

[[record]]
molecule = "CCN1CCCC1CNC(=O)c1ccc(Sc2ccccc2Cl)c([N+](=O)[O-])c1 (centres undefined)"
experimental_readout = "inhibition"
unit_name = "%"
assay_result = 4.96

[[record]]
molecule = "CC(/C=C1\\N=C(SCc2ccccc2)SC1=O)=C\\c1ccccc1"
experimental_readout = "inhibition"
unit_name = "%"
assay_result = 3

[[record]]
molecule = "O=C(NCCN1C(=O)S/C(=C\\c2ccccc2Cl)C1=O)C1=COCCO1"
experimental_readout = "inhibition"
unit_name = "%"
assay_result = 3.87

[[record]]
molecule = "OCC1CCCN(C(=S)Nc2ccc(Oc3ccccc3)cc2)C1 (centres undefined)"
experimental_readout = "inhibition"
unit_name = "%"
assay_result = 11.8

[[record]]
molecule = "Cc1nnc2n(-c3ccccc3)c(=O)c3ccccc3n12"
experimental_readout = "inhibition"
unit_name = "%"
assay_result = 9.66

[[record]]
molecule = "COc1cc(C2c3[nH]c4ccccc4c3C[C@H]3C(=O)N(CCO)CC(=O)N23)cc(OC)c1OC (some centres undefined)"
experimental_readout = "inhibition"
unit_name = "%"
assay_result = 8.37

[[record]]
molecule = "CCCCOCCCNC(=O)c1ccc(OC)cc1"
experimental_readout = "inhibition"
unit_name = "%"
assay_result = 4.46

[[record]]
molecule = "COc1ccc(S(=O)(=O)NC(CC(=O)NC2CCCC2)c2ccco2)cc1 (centres undefined)"
experimental_readout = "inhibition"
unit_name = "%"
assay_result = 5.91

[[record]]
molecule = "CC(=O)c1ccc(NC(=S)N2CCCC(CO)C2)cc1 (centres undefined)"
experimental_readout = "inhibition"
unit_name = "%"
assay_result = 9.07

[[record]]
molecule = "CCCC(=O)NC1=C(Cl)C(=O)c2ccccc2C1=O"
experimental_readout = "inhibition"
unit_name = "%"
assay_result = 24.7

[[record]]
molecule = "O=C(C1=C(O)C(=O)N(CCN2CCOCC2)C1c1cccc(Br)c1)c1cc2ccccc2o1 (centres undefined)"
experimental_readout = "inhibition"
unit_name = "%"
assay_result = 4.64

